Numbers sourced from patent US6583156B1.

So I've got a bunch of molecules here, and I need their melting point values.

# Molecule, Metric, Observed Result
rows = [
    ("CN(C)c1cc(C(O)c2ccccc2)c2ccccc2n1 (stereo not drawn) [Example 35]", "melting point", "153.6 to 154.3 °C"),
    ("FC(F)(F)c1cc(-c2ccco2)c2cccc(C(F)(F)F)c2n1 [Example 93]", "melting point", "82 to 83 °C"),
    ("OC1(c2cc(C(F)(F)F)nc3ccccc23)CCSC1 (stereo not drawn) [Example 44]", "melting point", "130 to 131 °C"),
    ("OC(Cc1cc(C(F)(F)F)nc2c(C(F)(F)F)cccc12)c1ccccc1 (stereo not drawn) [Example 9]", "melting point", "111 to 112 °C"),
    ("OC(c1cc(C(F)(F)F)nc2c(C(F)(F)F)cccc12)c1cc(C(F)(F)F)nc2c(C(F)(F)F)cccc12 [Example 8]", "melting point", "198 to 199 °C"),
    ("OC(c1ccsc1)c1cc(-c2ccccc2)nc2ccccc12 (stereo not drawn) [Example 41]", "melting point", "158 to 159 °C"),
]

Batch: melting point for all items listed.
1. OC(c1c(Cl)cccc1Cl)c1cc(C(F)(F)F)nc2c(C(F)(F)F)cccc12 (stereo not drawn) [Example 20]
2. OC(c1ccsc1)c1cc(C(F)(F)F)nc2ccccc12 (stereo not drawn) [Example 43]
3. COc1cc(C(O)C2CCCCC2)c2ccccc2n1.Cl (stereo not drawn)

1. 151.2 to 151.7 °C
2. 144 to 146 °C
3. 155.9 to 156.3 °C
